Ref: patent US11014898B1

// pIC50 lookup, one value per entry
Molecular target: Human IBAT (Homo sapiens)
Construct: cells kept under Puromycin selection
Sequence (Q12908 1-348): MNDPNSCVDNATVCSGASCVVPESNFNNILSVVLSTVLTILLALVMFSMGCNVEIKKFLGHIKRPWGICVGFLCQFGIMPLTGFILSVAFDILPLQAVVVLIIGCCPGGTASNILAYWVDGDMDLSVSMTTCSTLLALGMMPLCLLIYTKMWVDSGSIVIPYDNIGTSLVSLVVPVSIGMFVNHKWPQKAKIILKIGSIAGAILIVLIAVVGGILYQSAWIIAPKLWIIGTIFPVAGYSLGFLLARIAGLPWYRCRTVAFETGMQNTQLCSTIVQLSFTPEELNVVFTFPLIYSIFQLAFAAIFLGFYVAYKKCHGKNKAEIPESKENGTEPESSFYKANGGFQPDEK
Test: IBAT (h) assay: 3H-taurocholic acid uptake in human IBAT-overexpressing cells
Settings: 0.25 μM 3H-taurocholic acid and 5 μM cold taurocholic acid, 20 minutes, read-out: hIBAT IC50
pIC50: −log10 of the molar value.

Compound	Assay Target	pIC50
CCCCC1(CC)CN(c2ccccc2)c2cc(N(C)C)c(OCC(=O)O)cc2S(=O)(=O)C1 (single isomer, unassigned) [Example 8]	Human IBAT (Homo sapiens)	8.05
CCCCC1(CCCC)CN(c2ccccc2)c2cc(F)c(OCC(=O)O)cc2S(=O)(=O)C1	Human IBAT (Homo sapiens)	6.75
CCCCC1(CCCC)CN(c2ccc(C(F)(F)F)cc2)c2cc(SC)c(OCC(=O)O)cc2S(=O)(=O)C1	Human IBAT (Homo sapiens)	7.23
CCCCC1(CC)CN(c2ccc(O)cc2)c2cc(SC)c(OCC(=O)O)cc2S(=O)(=O)C1 (single isomer, unassigned) [Example 20]	Human IBAT (Homo sapiens)	7.85
CCCCC1(CCCC)CN(c2ccc(Br)cc2)c2cc(SC)c(OCC(=O)O)cc2S(=O)(=O)C1	Human IBAT (Homo sapiens)	7.59

* * *

Assay: Bidirectional permeability assay (Caco-2 cells)
Assay type: in vitro ADME
Settings: human, Caco-2, pH 7.4; absorptive direction (A2B); 10 μM in FaSSIF buffer; 120 minutes at 37° C.
Procedure: Caco-2 cells (Evotec) were seeded at a density of 70,000 cells/well in Millicell® 24-well cell culture insert plates and maintained in an incubator (37° C., 5% CO2, 95% RH) for 21 days with media change on alternate days. […] On the day of assay, Caco-2 monolayers were washed twice with transport buffer (HBSS, pH 7.4) and pre-incubated for 30 min (37° C., 5% CO2, 95% RH) in an incubator. The electrical resistance of the monolayers was measured with a Millicell®-ERS system. […]
Below: a set of entries, each annotated with reported Papp A→B at 120 min, 10 μM.
Endpoint Name: Papp A→B at 120 min, 10 μM (×10⁻⁶ cm/s)

Molecule	Unit Info	Reported Value
CCCCC1(CCCC)CN(c2ccc(C#N)cc2)c2cc(SC)c(OCC(=O)O)cc2S(=O)(=O)C1 [Example 5]	×10⁻⁶ cm/s	5.5
CCCCC1(CC)CN(c2ccccc2)c2cc(N(C)C)c(OCC(=O)O)cc2S(=O)(=O)C1 (single isomer, unassigned) [Example 8]	×10⁻⁶ cm/s	7.9
CCCCC1(CCCC)CN(c2ccc(Br)cc2)c2cc(SC)c(OCC(=O)O)cc2S(=O)(=O)C1 [Example 3]	×10⁻⁶ cm/s	4.1

* * *

test: Bidirectional permeability assay (Caco-2 cells); format: in vitro ADME; details: human, Caco-2, pH 7.4; absorptive direction (A2B); 10 μM in FaSSIF buffer; 120 minutes at 37° C.
Recorded Papp A→B at 120 min, 10 μM values for a group of molecules are listed next.

Molecule	Papp A→B at 120 min, 10 μM
CCCCC1(CCCC)CN(c2ccc(O)cc2)c2cc(SC)c(OCC(=O)O)cc2S(=O)(=O)C1 [Example 4]	3.3 ×10⁻⁶ cm/s
CCCCC1(CC)CN(c2ccc(F)cc2)c2cc(SC)c(OCC(=O)O)cc2S(=O)(=O)C1 (single isomer, unassigned) [Example 15]	8.7 ×10⁻⁶ cm/s
CCCCC1(CCCC)CN(c2ccc(OC)cc2)c2cc(SC)c(OCC(=O)O)cc2S(=O)(=O)C1 [Example 2]	4.3 ×10⁻⁶ cm/s
CCCCC1(CCCC)CN(c2ccccc2)c2cc(N(C)C)c(OCC(=O)O)cc2S(=O)(=O)C1 [Example 1]	3.2 ×10⁻⁶ cm/s

* * *

molecular target: Human LBAT (Homo sapiens); construct: cells kept under Geneticin selection; assay: LBAT (h) assay: 3H-taurocholic acid uptake in human LBAT-overexpressing cells; conditions: 0.3 μM 3H-taurocholic acid and 7.5 μM cold taurocholic acid, 20 minutes, read-out: hLBAT IC50
Sequence (Q14973 whole entry): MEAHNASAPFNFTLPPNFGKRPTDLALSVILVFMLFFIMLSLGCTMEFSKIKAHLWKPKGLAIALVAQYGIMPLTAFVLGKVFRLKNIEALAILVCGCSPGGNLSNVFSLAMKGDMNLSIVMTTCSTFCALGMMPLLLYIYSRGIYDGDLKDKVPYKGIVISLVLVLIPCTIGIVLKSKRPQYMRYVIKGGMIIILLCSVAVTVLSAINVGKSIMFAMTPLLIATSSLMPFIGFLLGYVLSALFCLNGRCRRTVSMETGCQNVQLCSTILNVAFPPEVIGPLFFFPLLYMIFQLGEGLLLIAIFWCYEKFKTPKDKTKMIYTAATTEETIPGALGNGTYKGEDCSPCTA
pIC50: −log10 of the molar value.
Mark n for pIC50 values under 6, and y for everything at or above.

Compound	Assay Target	Classification
CCCCC1(CCCC)CN(c2ccccc2)c2cc(Cl)c(OCC(=O)O)cc2S(=O)(=O)C1 [Example 13]	Human LBAT (Homo sapiens)	n
CCCCC1(CCCC)CN(c2ccc(O)cc2)c2cc(SC)c(OCC(=O)O)cc2S(=O)(=O)C1 [Example 4]	Human LBAT (Homo sapiens)	n
CCCCC1(CCCC)CN(c2ccccc2)c2cc(C#N)c(OCC(=O)O)cc2S(=O)(=O)C1 [Example 11]	Human LBAT (Homo sapiens)	n
CCCCC1(CCCC)CN(c2ccc(Br)cc2)c2cc(SC)c(OCC(=O)O)cc2S(=O)(=O)C1 [Example 3]	Human LBAT (Homo sapiens)	n
CCCCC1(CCCC)CN(c2ccc(C(F)(F)F)cc2)c2cc(SC)c(OCC(=O)O)cc2S(=O)(=O)C1 [Example 6]	Human LBAT (Homo sapiens)	n
CCCCC1(CC)CN(c2ccccc2)c2cc(F)c(OCC(=O)O)cc2S(=O)(=O)C1 (centres unmarked) [Example 12]	Human LBAT (Homo sapiens)	y
